Just for reference, paper PMC7819943 is where these values come from.

- target: OsWOX13 (Oryza sativa, UniProt Q5QMM3 1-267)
- Sequence: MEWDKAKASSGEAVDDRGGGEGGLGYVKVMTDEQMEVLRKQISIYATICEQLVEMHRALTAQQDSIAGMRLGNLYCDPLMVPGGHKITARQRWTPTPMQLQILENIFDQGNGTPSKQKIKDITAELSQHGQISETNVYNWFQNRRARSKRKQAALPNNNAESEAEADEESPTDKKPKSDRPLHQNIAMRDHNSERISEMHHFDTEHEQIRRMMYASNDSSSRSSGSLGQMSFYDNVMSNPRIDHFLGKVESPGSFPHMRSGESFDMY
- procedure.summary: protein-binding microarray (RPBM); PBS, 2% BSA, 51.3 ng/ul salmon testes DNA, 50 uM zinc acetate, 200 nM TF, 25 C, 1 h; high values mean tight binding
- experimental.context: protein: recombinant; tags: N-terminal polyhistidine and DsRed monomer fusion (pET32a); label: CyDye5-dUTP incorporated in the synthesized complementary strand; 3' TTTTT single-stranded linker to array surface; dsDNA, one strand shown
Whole data set: some 35,000 sequences, median “fluorescence intensity (a.u.)” near 10,000, cut for the highest 2% near 52,000. The sample holds the highest values, similar sequences and a random draw of the others, so the mix is not that of the screen.
assay.readout: binding signal

Challenge: What binding signal value was documented for this sequence, "CTTAATTAGCTCTAGCGAGCTAGCTAGCTTGCTCTGTCTTCGGAGTCACCTAGTGCAG" ?
Response given: 24200 fluorescence intensity (a.u.)

Challenge: Given "TCCACTTGGGTGATTAGAATCTGTCTTCCCTGTTTTAAGCCGGAGTCACCTAGTGCAG" , state its recorded binding signal.
Response given: 7670 fluorescence intensity (a.u.)

Challenge: Give the measured binding signal of "TCGTGATTAGAATCTTAATCTCTAGCCTGTCTTTGCTTGCCGGAGTCACCTAGTGCAG" .
Response given: 56200 fluorescence intensity (a.u.)

* * *

Listing of entries alongside the reported binding signal.
- target: OsWOX13 (Oryza sativa, UniProt Q5QMM3 1-267)
- Sequence: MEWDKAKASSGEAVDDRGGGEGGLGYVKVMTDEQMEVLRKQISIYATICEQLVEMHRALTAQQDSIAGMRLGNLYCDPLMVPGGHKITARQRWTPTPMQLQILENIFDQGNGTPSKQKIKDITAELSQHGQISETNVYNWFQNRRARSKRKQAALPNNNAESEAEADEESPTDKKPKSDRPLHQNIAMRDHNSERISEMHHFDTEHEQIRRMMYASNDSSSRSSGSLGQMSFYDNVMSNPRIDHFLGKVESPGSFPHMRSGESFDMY
- procedure.summary: protein-binding microarray (RPBM); PBS, 2% BSA, 51.3 ng/ul salmon testes DNA, 50 uM zinc acetate, 200 nM TF, 25 C, 1 h; high values mean tight binding
- experimental.context: protein: recombinant; tags: N-terminal polyhistidine and DsRed monomer fusion (pET32a); label: CyDye5-dUTP incorporated in the synthesized complementary strand; 3' TTTTT single-stranded linker to array surface; dsDNA, one strand shown
The full ranking holds about 35,000 sequences; the median of “fluorescence intensity (a.u.)” is about 10,000, and the highest 2% start at about 52,000. The sample as a whole holds a higher share of the highest values than the screen did.

Examples with their reported binding signal follow.
- sequence.text: "TAGATTGGCTATAGATGAATTGGAGCTAGTAGTTGGCTATCGGAGTCACCTAGTGCAG"
  target: "OsWOX13 (Oryza sativa, UniProt Q5QMM3 1-267)"
  assay.readout: "binding signal"
  result: "25400 fluorescence intensity (a.u.)"
- sequence.text: "ATTTAAATGAGATGATTGATGGGGCAATTAGTACTCTAGACGGAGTCACCTAGTGCAG"
  target: "OsWOX13 (Oryza sativa, UniProt Q5QMM3 1-267)"
  assay.readout: "binding signal"
  result: "38600 fluorescence intensity (a.u.)"
- sequence.text: "TCGAACAGGCCCTTAATTATCTGAGCTATCCTGCATGCTTCGGAGTCACCTAGTGCAG"
  target: "OsWOX13 (Oryza sativa, UniProt Q5QMM3 1-267)"
  assay.readout: "binding signal"
  result: "8320 fluorescence intensity (a.u.)"
- sequence.text: "AAAATATAATCAAAATAATTTACTTATCCATGTAATCATACGGAGTCACCTAGTGCAG"
  target: "OsWOX13 (Oryza sativa, UniProt Q5QMM3 1-267)"
  assay.readout: "binding signal"
  result: "3770 fluorescence intensity (a.u.)"
- sequence.text: "ACTATATAATTAAAATAGATTTCACCCGTTGCAACGCACGCGGAGTCACCTAGTGCAG"
  target: "OsWOX13 (Oryza sativa, UniProt Q5QMM3 1-267)"
  assay.readout: "binding signal"
  result: "13300 fluorescence intensity (a.u.)"

Challenge: Which measured binding signal value corresponds to "ATAATTAGATTAAAATAGATTTTACCCGTTGCAATGCACGCGGAGTCACCTAGTGCAG" ?
Response given: 56200 fluorescence intensity (a.u.)

Challenge: binding signal lookup needed for "AACCCTGATTTCCGTGCTCAACGTTTGACCGTCCGTCTTGCGGAGTCACCTAGTGCAG" , thanks.
Response given: 4670 fluorescence intensity (a.u.)

Challenge: Consider the sequence "TTCGATTGATTGATAGTTGATTGTGTGTTTACAATTGAACCGGAGTCACCTAGTGCAG" and give its measured binding signal.
Response given: 52600 fluorescence intensity (a.u.)

Challenge: # binding signal lookup, item "AAATTTTGAAATTGTTAATATGATATAAATGAGATATAGCCGGAGTCACCTAGTGCAG"
Response given: 3970 fluorescence intensity (a.u.)
